cell viability: recorded values
Test system: Calu-3
procedureText: cell viability relative to DMSO; higher = less toxic
experimentalParameters: 72 h; 1 nM
observationType: cell viability (%)

{"molecule": "C[N+]1(CCCCC[N+]2(C)CCCC2)CCCC1", "units": "%", "measurement": 97.1}
{"molecule": "Nc1nc2c(cnn2CCc2ccccc2)c2nc(-c3ccco3)nn12", "units": "%", "measurement": 88.2}
{"molecule": "CCOC(=O)[C@H](CCc1ccccc1)N[C@@H](C)C(=O)N1Cc2cc(OC)c(OC)cc2C[C@H]1C(=O)O", "units": "%", "measurement": 97}
{"molecule": "O=C1OC(OC(=O)c2cccnc2Nc2cccc(C(F)(F)F)c2)c2ccccc21 (centres undefined) [talniflumate]", "units": "%", "measurement": 90.9}
{"molecule": "CC(=O)N(O)C/C=C/c1cccc(Oc2ccccc2)c1", "units": "%", "measurement": 89.6}
{"molecule": "CNC(=O)CN(CCN(CCN(CC(=O)[O-])CC(=O)NC)CC(=O)[O-])CC(=O)[O-].[Gd+3] [gadodiamide]", "units": "%", "measurement": 115}
{"molecule": "CN(C)CCNc1nc2cc(O)ccc2c2c1C(=O)c1ccccc1-2", "units": "%", "measurement": 109}
{"molecule": "C=CC(=O)Nc1cccc(Nc2nc(Nc3ccc(NC4CN(CCF)C4)cc3OC)ncc2C(F)(F)F)c1", "units": "%", "measurement": 96.2}
{"molecule": "c1ccc2c(c1)Sc1ccccc1N2C[C@H]1CN2CCC1CC2", "units": "%", "measurement": 105}

Source listed as the supplement of paper PMC13380429.
